Where do these numbers come from? They come from the nanobody polyreactivity screen of Harvey et al. (2022).

- ASSAY_OVERVIEW: yeast display, Sf9 membrane polyspecificity reagent, FACS + sequencing; frameworks hold sequencing errors
MEASURE_NAME: polyreactivity (PSR sort gate)

Here's what some known entries look like.
QVQLVESGGGLDQAGGSLRLSCAASGISFIIYVMGWYRQAPGKERELVAAISSTGSTYYADSVKGRFTISRDNAKNTVYLQMNSQKPEDTAVYYCAKRKFTARQRYNYWGQGTQVTVSS ... high polyreactivity
QVQLVESGGGLVQAGGSLRLSCAASGFIFGRYAMGWYRQAPGKERELVAAISRSGGSTHYADSVKGRFTISRDNAKNTVYLQMNSLKQVDTAVYYCNTYLTIWGYFYGYDYWGQGTQVTVSS ... high polyreactivity
QVQLVESGGGLVQAGGSLRLSCAASGLTFYNARGWYRQAPGKERELVAAISGTVSRTYYADSVKGRFTISRDNAKNTVYLEMNSLKPEDTAVYYCAVRWYGKYSGVRYYYWGQGTQVNVSS ... high polyreactivity
QVQLVESGGGLVQAGGSLRLICAASGFIFPHNTMGWYRQAPGKERELVAAISSGGSTNYADSVKGRFTLSRDNAKNTVYLQMNSLKPEDTAVYYCATVSVRWPSNDHVRYDYWGQGTQVTVSS ... low polyreactivity

Continue with the sequence presented below.
Short answer for QVQLVESGGGLVQAGGSLRLSCAASGRTYYWNAMGWYRQAPGKEREFVAAITNTAGSTYYADSVKGRFTISRDNAKNTVYLQMNSLKPEDTAVYYCAKSGNAGYRTYLRDYWGQGTQVTVSS : polyreactivity (PSR sort gate) was low polyreactivity
